Test: In vitro enzyme assay to detect hydrolysis of chlorophenol red-beta-D-[…] directly proportional to the number of Toxoplasma stably expressing beta-galactosidase
Type: functional, organism-based, Toxoplasma gondii
Conditions: Toxoplasma gondii
pIC50: −log10 of the molar value.
measured_parameter: pIC50

In [3]: df
Out[3]:
                                    molecule  measured_parameter  experimental_result
 0                     NCCc1cc(C(F)(F)F)ccn1               pIC50               < 4.30
 1   OC1(Cc2ccccc2F)CCNC1 (stereo not drawn)               pIC50               < 4.30
 2   COc1ccc2[nH]cc(-c3ccnc(NC4CCCC4)n3)c2c1               pIC50                 5.58
 3      Cc1nn(C)c2c(=O)n(Cc3ccc(Cl)cc3)nnc12               pIC50               < 4.30
 4  O=C(c1cc(=O)[nH][nH]1)N1CCCC2(CCC(=O)N(C3CCCC3)C2)C1 (stereo not drawn)               pIC50               < 4.30
 5                       N#CCCNC(=O)CN1CCCC1               pIC50               < 4.30
 6  Cc1cccc(NC(=O)C2CC(=O)n3cnnc3S2)c1 (stereo not drawn)               pIC50               < 4.30
 7        O=C(CN1CCN(C(=O)c2ccco2)CC1)NC1CC1               pIC50               < 4.30
 8        CC(C)(C(=O)N1CCC(N)CC1)c1cccc(F)c1               pIC50               < 4.30
 9       O=C1CCCCN1c1ccc(S(=O)(=O)NC2CC2)cc1               pIC50               < 4.30
10  Cc1ccoc1C(=O)NC1CCN(Cc2csc3c(F)cccc23)CC1               pIC50                 5.08
11  CCCn1ncc(-c2ccnc(N[C@@H]3C[C@@H]4CC[C@H]3C4)n2)c1C               pIC50                 5.25
12            Cc1ccc(CNC(=O)c2cc(C)n(C)n2)o1               pIC50               < 4.30
